Entries and their measured IC50 follow.
Tested on: HT-29 cells
assaySummary: Colony formation
Format: cell-based, human
measurementParameters: Homo sapiens, HT-29, 240 h, read-out: 10-day treatment IC50, colony formation

>  <compound>
c1ccc2c(c1)[I+]c1ccccc1-2 [DPI, Diphenylene iodonium, reference compound]

>  <targetOrSystem>
HT-29 cells

>  <measureUnit>
nM

>  <IC50>
39

$$$$
>  <compound>
O=[N+]([O-])c1ccc2c(c1)[I+]c1cc([N+](=O)[O-])ccc1-2.[Br-] [compound 392, Dibenziodolium, 3,7-dinitro-, bromide]

>  <targetOrSystem>
HT-29 cells

>  <measureUnit>
nM

>  <IC50>
27

$$$$
>  <compound>
Brc1ccc2c(c1)[I+]c1cc(Br)ccc1-2.[Br-] [compound 104, Dibenziodolium, 3,7-dibromo-, bromide]

>  <targetOrSystem>
HT-29 cells

>  <measureUnit>
nM

>  <IC50>
9

$$$$
>  <compound>
O=[N+]([O-])c1ccc2c(c1)[I+]c1ccccc1-2.[Cl-] [compound 428, Dibenz[b,d]iodolium, 3-nitro-, chloride]

>  <targetOrSystem>
HT-29 cells

>  <measureUnit>
nM

>  <IC50>
11

$$$$

---

Reported IC50 by item:
System: HT-29 cells
assaySummary: Seahorse oxygen consumption rate / extracellular acidification rate
Assay type: cell-based, human
measurementParameters: read-out: 30-min treatment IC50, cellular respiration (OCR); HT-29, 30 min
propertyMeasured: IC50 (nM)

>  <molecule>
O=[N+]([O-])c1cccc2c1-c1c(cccc1[N+](=O)[O-])[I+]2.[Br-]

>  <measureUnit>
nM

>  <experimentalResult>
1670

$$$$
>  <molecule>
COC(=O)c1ccc2c(c1)[I+]c1ccccc1-2.Cc1ccc(S(=O)(=O)[O-])cc1

>  <measureUnit>
nM

>  <experimentalResult>
678

$$$$

---

targetOrSystem: NOX2 (Homo sapiens, UniProt P04839)
assaySummary: PMA-induced superoxide anion luminescence assay, PMNs
pIC50: −log10 of the molar value.
propertyMeasured: pIC50

>  <compound>
Brc1ccc2c(c1)[I+]c1cc(Br)ccc1-2.[Br-] [compound 104, Dibenziodolium, 3,7-dibromo-, bromide]

>  <experimentalResult>
6.32

$$$$
>  <compound>
O=[N+]([O-])c1ccc2c(c1)[I+]c1cc([N+](=O)[O-])ccc1-2.[Br-] [compound 392, Dibenziodolium, 3,7-dinitro-, bromide]

>  <experimentalResult>
6.07

$$$$

---

Test system: HT-29 cells
assaySummary: Seahorse oxygen consumption rate / extracellular acidification rate
Format: cell-based, human
measurementParameters: Homo sapiens, HT-29, 24 h, read-out: 24-h treatment IC50, cellular respiration (OCR), HT-29, 24 h
pIC50: −log10 of the molar value.

>  <compound>
O=[N+]([O-])c1ccc2c(c1)[I+]c1ccccc1-2.[Cl-] [compound 428, Dibenz[b,d]iodolium, 3-nitro-, chloride]

>  <pIC50>
7.35

$$$$

---

Tested on: HT-29 cells
assaySummary: MTT cell growth assay
Format: cell-based, human
measurementParameters: Homo sapiens, HT-29, 72 h, read-out: IC50 inhibition of HT-29 cell proliferation

>  <molecule>
Brc1ccc2c(c1)[I+]c1cc(Br)ccc1-2.[Br-] [compound 104, Dibenziodolium, 3,7-dibromo-, bromide]

>  <IC50>
150 to 250 nM

$$$$
>  <molecule>
c1ccc2c(c1)[I+]c1ccccc1-2 [DPI, Diphenylene iodonium, reference compound]

>  <IC50>
~450 nM

$$$$

---

Reported pIC50 values follow for various compounds
System: HT-29 cells
assaySummary: Seahorse oxygen consumption rate / extracellular acidification rate
Format: cell-based, human
measurementParameters: Homo sapiens, HT-29, 1 h, read-out: 60-min treatment IC50, cellular respiration (OCR), HT-29, 60 min
pIC50: −log10 of the molar value.
propertyMeasured: pIC50

>  <compound>
O=[N+]([O-])c1ccc2c(c1)[I+]c1ccccc1-2.[Cl-] [compound 428, Dibenz[b,d]iodolium, 3-nitro-, chloride]

>  <experimentalResult>
6.68

$$$$
>  <compound>
O=[N+]([O-])c1ccc2c(c1)[I+]c1cc([N+](=O)[O-])ccc1-2.[Br-] [compound 392, Dibenziodolium, 3,7-dinitro-, bromide]

>  <experimentalResult>
5.66

$$$$
